# System: collagen
# PROTOCOL_NOTES: Collagen anti-glycation assay kit
# Assay type: biochemical
# SETTINGS: sample dissolved in DMSO; read-out: IC50 value, inhibition effect on glycation of collagen
Listing: IC50 of selected compounds
MEASURED_ENDPOINT: IC50 (µM)

COMPOUND	RESULT_NUMBER
N=C(N)NN [aminoguanidine, reference compound]	2400
CCC(=O)/C=C/C=C\C=C\C(=O)CCCCCCCC(=O)O [saclipin B]	900
CCC(=O)/C=C/C=C/C=C/C(=O)CCCCCCCC(=O)O [saclipin A]	1900
